Known pEC50 of a selection of compounds
- Target Under Test: human sweet taste receptor (hT1R2/hT1R3) coupled to Gα15 (Homo sapiens, UniProt Q7RTX0+Q8TE23)
- Construct: expressed in transfected cells
- Sequence (Q8TE23 20-839): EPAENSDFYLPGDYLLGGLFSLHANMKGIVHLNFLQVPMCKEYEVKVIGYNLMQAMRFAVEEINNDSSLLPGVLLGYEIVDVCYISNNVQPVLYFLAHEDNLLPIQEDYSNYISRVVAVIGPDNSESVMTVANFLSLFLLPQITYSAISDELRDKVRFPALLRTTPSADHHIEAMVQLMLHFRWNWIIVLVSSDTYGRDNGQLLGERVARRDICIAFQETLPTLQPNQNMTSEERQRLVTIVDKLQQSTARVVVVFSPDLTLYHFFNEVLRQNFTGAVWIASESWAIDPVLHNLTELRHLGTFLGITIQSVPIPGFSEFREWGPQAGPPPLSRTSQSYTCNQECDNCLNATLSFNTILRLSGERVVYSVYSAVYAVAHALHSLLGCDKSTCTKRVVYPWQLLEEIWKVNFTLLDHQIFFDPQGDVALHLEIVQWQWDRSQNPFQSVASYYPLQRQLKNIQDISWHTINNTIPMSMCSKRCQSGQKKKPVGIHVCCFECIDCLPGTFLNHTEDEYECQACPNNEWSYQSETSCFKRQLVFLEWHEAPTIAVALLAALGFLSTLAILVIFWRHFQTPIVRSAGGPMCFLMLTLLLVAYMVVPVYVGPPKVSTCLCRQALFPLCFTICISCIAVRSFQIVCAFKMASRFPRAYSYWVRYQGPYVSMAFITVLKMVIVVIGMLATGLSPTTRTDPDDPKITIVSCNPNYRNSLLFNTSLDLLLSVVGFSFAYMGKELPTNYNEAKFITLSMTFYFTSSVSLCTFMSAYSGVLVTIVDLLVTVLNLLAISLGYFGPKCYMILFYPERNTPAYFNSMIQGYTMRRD
- Sequence (Q7RTX0 21-852): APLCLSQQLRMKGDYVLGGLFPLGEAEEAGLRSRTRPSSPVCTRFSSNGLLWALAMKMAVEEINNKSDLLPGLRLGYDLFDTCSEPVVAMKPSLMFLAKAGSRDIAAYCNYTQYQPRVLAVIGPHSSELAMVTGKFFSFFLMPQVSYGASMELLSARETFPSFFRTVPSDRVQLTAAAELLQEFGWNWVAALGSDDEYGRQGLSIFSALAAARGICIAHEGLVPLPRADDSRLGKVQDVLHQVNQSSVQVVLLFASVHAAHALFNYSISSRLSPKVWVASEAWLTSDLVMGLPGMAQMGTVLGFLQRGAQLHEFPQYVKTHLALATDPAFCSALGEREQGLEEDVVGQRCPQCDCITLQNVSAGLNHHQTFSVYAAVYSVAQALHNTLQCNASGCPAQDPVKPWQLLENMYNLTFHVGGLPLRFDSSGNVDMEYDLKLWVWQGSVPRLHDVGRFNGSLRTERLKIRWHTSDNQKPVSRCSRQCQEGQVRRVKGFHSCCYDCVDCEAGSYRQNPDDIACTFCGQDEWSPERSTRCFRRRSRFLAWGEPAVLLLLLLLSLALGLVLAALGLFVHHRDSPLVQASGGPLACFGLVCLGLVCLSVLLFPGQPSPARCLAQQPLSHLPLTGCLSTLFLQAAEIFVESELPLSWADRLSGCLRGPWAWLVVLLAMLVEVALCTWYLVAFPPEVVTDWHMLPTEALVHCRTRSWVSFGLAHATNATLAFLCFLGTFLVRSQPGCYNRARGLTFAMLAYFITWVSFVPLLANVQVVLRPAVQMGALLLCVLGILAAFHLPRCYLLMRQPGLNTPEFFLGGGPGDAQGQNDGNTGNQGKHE
- Assay Method Text: FLIPR calcium mobilization assay, R2/R3 U2OS cells transduced with Gα15 baculovirus
- Type: cell-based
- Condition Summary: Activity in FLIPR assay pEC50, R2/R3 U2OS cells expressing Gα15
pEC50: −log10 of the molar value.
Parameter: pEC50

[
  {
    "Compound": "C[C@@H](NC(=O)[C@@H](N)CC(=O)O)C(=O)NC1C(C)(C)SC1(C)C",
    "Result Value": 4.71
  },
  {
    "Compound": "C=C1C[C@@]23CC[C@H]4[C@@](C)(CCC[C@@]4(C)C(=O)O[C@@H]4O[C@H](CO)[C@@H](O)[C@H](O)[C@H]4O)[C@@H]2CC[C@]1(O[C@@H]1O[C@H](CO)[C@@H](O)[C@H](O)[C@H]1O[C@@H]1O[C@H](CO)[C@@H](O)[C@H](O)[C@H]1O)C3 [Stevioside]",
    "Result Value": 4.30
  }
]
